Tested on: SW-620 colon
Test Details: NCI tumour cell line growth inhibition, 48 h
Measured Endpoint: TGI

# count of solved cases: 5
# Compound, Assayed Target, TGI
rows = [
    ("CN1CCCNCCN(CCc2ccccn2)CCCN(C)CC1", "SW-620 colon", "> 53.6 µM"),
    ("CC(C)c1c(P(=O)(c2ccccc2)c2ccccc2)n(C)c2ccccc12", "SW-620 colon", "> 100 µM"),
    ("O=C(O)c1cc(S(=O)(=O)N=NC=C2c3ccccc3N(O)c3ccccc32)ccc1O", "SW-620 colon", "> 100 µM"),
    ("O=C(O)/C=C/C(=O)Nc1ncn[nH]1", "SW-620 colon", "> 100 µM"),
    ("CN(O)C(=O)Cc1ccc(OCc2cccc(Cl)c2)cc1", "SW-620 colon", "> 100 µM"),
]

Would you kindly look at the next entry?
// O=c1[nH]c(=O)n(C2CC(O)C(CO)O2)cc1C#Cc1c(F)c(F)c(F)c(F)c1F (stereo unspecified) : TGI value = > 100 µM

* * *

System: SN12C renal
Test Details: NCI tumour cell line growth inhibition, 48 h
Listing of recorded TGI by entry.

# Smiles Input, Assayed Target, TGI
measured = [
    ("CN1C(=O)CN(NC(=O)C2=C(O)c3ccc(Br)cc3S(=O)(=O)N2)C1=S", "SN12C renal", "> 100 µM"),
]

// O=C1NC(=S)NC(=O)C1C(c1ccccc1[N+](=O)[O-])C1C(=O)NC(=S)NC1=O : TGI value = > 100 µM

// Cc1oc2nc(N(C)C)n3nnnc3c2c1C : TGI value = > 100 µM

// CC(=O)/C=C/c1cccc(N=S)c1 : TGI value = 87.2 µM

// CN1CCCNCCN(CCc2ccccn2)CCCN(C)CC1 : TGI value = > 100 µM

// Fc1ccc(-c2nn(-c3ccccc3)cc2-c2nc3ccccc3o2)cc1 : TGI value = 33.5 µM

* * *

Listing of recorded TGI by entry.
Tested on: DU-145 prostate
Test Details: NCI tumour cell line growth inhibition, 48 h
Reply with just the number (in µM).

# count of solved cases: 3
# Compound, Val
measured = [
    ("CCOC(=O)c1cc(-c2ccc([N+](=O)[O-])cc2)n(-c2ccc(C(=O)O)c(O)c2)c1C", 17.5),
    ("CCC[C@H](C)[C@H]1NC(=O)[C@@H](NC(=O)[C@@H](CC(C)C)N(C)C(=O)C2CCCN2C(=O)[C@H](C)O)[C@@H](C)OC(=O)[C@H](CC(C)C)N(C)C(=O)[C@@H]2CCCN2C(=O)[C@H](CC(C)C)NC(=O)[C@@H](C)C(=O)[C@H](C(C)C)OC(=O)C[C@@H]1O (some centres undefined)", 0.0143),
    ("O=C1/C(=C/c2ccc([N+](=O)[O-])cc2)CNC/C1=C\\c1ccc([N+](=O)[O-])cc1", 35.6),
]

Would you kindly look at the next entry?
// N#Cc1nc(-c2ccc(F)cc2)oc1S(=O)(=O)N1CCOCC1 : TGI value = 6.07

* * *

Listing of recorded TGI by entry.
Test system: UO-31 renal
Test Details: NCI tumour cell line growth inhibition, 48 h

# count of solved cases: 6
# Molecule, TGI
rows = [
    ("NS(=O)(=O)c1ccc(-n2nc(-c3ccc(Br)cc3)ccc2=O)cc1", "> 10 µM"),
    ("CC1=C2c3ccccc3N(C(=O)/C=C/C(=O)O)[C@H]2[C@H]2C(=O)OC(=O)[C@H]2C1", "> 10 µM"),
    ("O=C1/C(=C/c2ccc(F)cc2)CNC/C1=C\\c1ccc(F)cc1", "3.3 µM"),
    ("C=C1CC(OC)(C(O)C(=O)N[C@H]2OCO[C@H]3C2O[C@H](C[C@@H](COC)OC)C(C)(C)C3OC)O[C@H](C)[C@@H]1C (some centres not stated)", "< 0.00482 µM"),
    ("O=C1/C(=C/c2ccc(Br)s2)NC(=S)N1CN1CCOCC1", "> 100 µM"),
    ("CC(C)(CO)N1C(=O)c2ccccc2C1(O)c1ccc(Cl)cc1 (configuration not stated)", "> 100 µM"),
]

// COC(=O)CCCC(=O)C(=Nc1c(Cl)cccc1Cl)NNc1ccc(Cl)cc1 : TGI value = > 100 µM

// COc1nc2c(cc1S(=O)(=O)c1ccccc1)CCc1c-2cnn1-c1ccccc1Cl : TGI value = > 100 µM

// NNC(=O)c1cnn(-c2ccnc3c(C(F)(F)F)cccc23)c1N : TGI value = > 100 µM

// CC(C)=CC1C(C(=O)O)C1(C)C (configuration not stated) : TGI value = > 750 µM

// CNC(=O)c1cc(Oc2ccc3c(c2)sc2nc(-c4ccc(N)cc4)cn23)ccn1 : TGI value = > 100 µM

// C[C@@H]1Cc2c([nH]c3ccccc23)[C@@H](c2c(F)cc(/C=C/C(=O)O)cc2F)N1CC(C)(C)F : TGI value = 21.6 µM

// CCOc1ccc2nc(NC(=O)/C(CC(=O)CC(C3=C(O)c4ccccc4CC3=O)c3ccccc3)=N\O)sc2c1 (configuration not stated) : TGI value = > 100 µM

// S=C1NCCN1C1=Nc2ccccc2CO1 : TGI value = > 100 µM

// Cc1cc(C)c2c(n1)S(=O)(=O)N(CCCN1CCN(c3cccc(C(F)(F)F)c3)CC1)/C(=C(\O)c1ccc(Cl)cc1)C2=O : TGI value = 10.8 µM

// O=[N+]([O-])C(=C(Sc1ccccc1)Sc1ccccc1)C(Cl)=C(Cl)Cl : TGI value = 0.402 µM
